Just for reference, ChEMBL document CHEMBL1201862 is where these values come from.

# System: BT-549
# protocol.description: NCI tumour cell line growth inhibition, 48 h
Activity calls are given as the source filed them. No stated cut-off is given here; in the data, active = GI50 up to about 1.1 µM and inactive = higher.
Log the outcome using a class from y = active, n = inactive

Example cases with answers are listed next.
1) COc1ccc(Br)c2c1CC(C(=O)O)CC2 (stereo not given); n
2) N#CCc1nc(Cc2ccccc2)n[nH]1; n
3) O=S(=O)(O)c1ccc(Nc2ccnc3ccccc23)cc1; n

Query string: Outcome? "CCOC(=O)N/N=C(\Cc1ccccc1)OCC"
Result string: n

Query string: Outcome? "CCN(C(=O)N[C@@H](C)C(=O)N[C@@H](Cc1ccccc1)C(=O)OC)c1ccccc1"
Result string: n

Query string: Outcome? CN(CCCCCl)P(=O)(OCc1ccc([N+](=O)[O-])o1)OC[C@H]1O[C@@H](n2cc(F)c(=O)[nH]c2=O)C[C@@H]1O (stereo not given in full)
Result string: n

Query string: Outcome? "CC(C)OP(=O)(CCCCCCCCC/C=C/c1ccc2c(c1)OCCOCCOCCOCCO2)OC(C)C"
Result string: n

Query string: Outcome? "COC(=O)C1=C(CCC[C@H](C)O[Si](C)(C)C(C)(C)C)NC(=O)N2[C@@H](CCO)CC[C@H]12"
Result string: n

Query string: Outcome? "c1csc(-c2ccsc2-c2ccsc2)c1"
Result string: n

Query string: Outcome? "COc1ccc(OC)c(CCc2cc(OC)ccc2OC)c1"
Result string: n

Query string: Outcome? "NNC(=O)c1c(SCc2ccccc2)nc2c3ccccc3ccn12"
Result string: n

Query string: Outcome? "Cc1nc(-c2cc3c(ccc4ccccc43)oc2=O)cc2c1c(=O)oc1ccc3ccccc3c12"
Result string: n

Query string: Outcome? O=C1O/C(=C\C=C\CO)C=C1/C=C/CO [LISSOCLINOLIDE]
Result string: n

Query string: Outcome? "COc1ccccc1CNCc1nc2ccccc2[nH]1"
Result string: n

Query string: Outcome? "O=C(/C=C/c1csc(-c2ccccc2)n1)NCc1ccc(C(=O)NCc2ccccc2)cc1"
Result string: n

Query string: Outcome? "O=C1/C(=C\c2ccccc2)c2ccccc2N1Cc1ccccc1"
Result string: n

Query string: Outcome? CCOC(=O)C1(C/C=C\CBr)CCCCCCCCCCC1=O (stereo not given)
Result string: n

Query string: Outcome? C#CCNC(CS)C(=O)O (stereo not given)
Result string: n
